Provide the reported pIC50 of each item.
- System: MDA-MB-468
- assay_info: 13C3 Serine Assay MDA-MB-468 (13C3 serine levels by LC/MS/MS)
- Assay type: cell-based
- experimental_setup: Homo sapiens; MDA-MB-468 cells, 13C3 serine levels by LC/MS/MS; read-out: IC50 (13CSERINE)
Lab note — pIC50 values are minus log10 of concentrations in M.

Consider CC(C)OC(=O)CS(=O)(=O)c1ccc([C@@H](C)NC(=O)c2cc3c(Cl)cc(-c4cnn(C)c4)cc3n2C)cc1 . Its measured pIC50 is 6.31

Consider Cc1cc(Cl)c2cc(C(=O)N[C@H](C)c3ccc(S(=O)(=O)CC(=O)OCCOC(=O)CS(=O)(=O)c4ccc([C@@H](C)NC(=O)c5cc6c(Cl)cc(C)cc6n5C)cc4)cc3)n(C)c2c1 . Its measured pIC50 is 6.60

Consider CCOC(=O)CS(=O)(=O)c1ccc([C@@H](C)NC(=O)c2cc(-c3cccc4cc[nH]c34)nn2C)cc1 . Its measured pIC50 is 7.19

Consider Cc1cc(Cl)c2cc(C(=O)N[C@H](C)c3ccc(S(=O)(=O)CC(=O)N(C)C)cc3)n(C)c2c1 . Its measured pIC50 is 5.47
